Values from patent US9056844B2

- MEASUREMENT TARGET: human mGlu5 receptor (Homo sapiens, UniProt P41594)
- Construct: expressed in transfected cells; host or cells: AV12 cells, co-expressing rat EAAT1
- Sequence (P41594 19-1212 limits assumed): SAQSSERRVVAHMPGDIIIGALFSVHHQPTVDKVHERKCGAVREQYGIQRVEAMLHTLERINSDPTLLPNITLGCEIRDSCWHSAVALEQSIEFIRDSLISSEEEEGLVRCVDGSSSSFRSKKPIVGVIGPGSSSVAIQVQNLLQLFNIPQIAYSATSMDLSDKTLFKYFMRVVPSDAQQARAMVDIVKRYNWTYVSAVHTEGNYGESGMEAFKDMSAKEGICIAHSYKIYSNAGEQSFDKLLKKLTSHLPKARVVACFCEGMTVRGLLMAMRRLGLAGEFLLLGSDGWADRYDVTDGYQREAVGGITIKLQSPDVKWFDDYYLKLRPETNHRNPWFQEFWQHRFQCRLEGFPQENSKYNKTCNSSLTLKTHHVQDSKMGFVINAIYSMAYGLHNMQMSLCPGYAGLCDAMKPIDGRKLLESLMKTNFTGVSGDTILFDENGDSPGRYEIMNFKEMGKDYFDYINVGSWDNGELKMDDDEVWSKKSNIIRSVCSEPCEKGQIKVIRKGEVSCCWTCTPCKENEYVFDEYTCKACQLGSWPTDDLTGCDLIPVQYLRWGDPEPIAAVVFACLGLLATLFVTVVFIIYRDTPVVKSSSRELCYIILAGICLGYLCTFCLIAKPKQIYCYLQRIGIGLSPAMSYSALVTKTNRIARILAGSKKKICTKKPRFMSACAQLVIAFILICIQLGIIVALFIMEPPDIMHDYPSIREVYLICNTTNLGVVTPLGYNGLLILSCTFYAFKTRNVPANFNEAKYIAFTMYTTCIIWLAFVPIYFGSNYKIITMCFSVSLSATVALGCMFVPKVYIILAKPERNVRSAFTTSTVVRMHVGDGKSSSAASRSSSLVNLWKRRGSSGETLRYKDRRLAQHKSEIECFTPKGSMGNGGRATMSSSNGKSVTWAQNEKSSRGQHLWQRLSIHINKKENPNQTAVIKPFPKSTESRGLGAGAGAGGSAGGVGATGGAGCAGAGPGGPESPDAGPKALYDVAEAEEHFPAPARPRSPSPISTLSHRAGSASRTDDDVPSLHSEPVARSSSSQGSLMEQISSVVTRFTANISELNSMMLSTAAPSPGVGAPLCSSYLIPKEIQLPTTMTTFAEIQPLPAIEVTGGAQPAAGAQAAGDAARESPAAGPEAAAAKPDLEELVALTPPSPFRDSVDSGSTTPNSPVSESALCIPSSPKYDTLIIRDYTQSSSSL
- TEST: FLIPR calcium assay for mGlu receptor selectivity, mGlu5 antagonist mode
- Type: cell-based
- CONDITION PARAMETERS: inhibition of EC90 glutamate response, read-out: mGlu5 % inhib. @12.5 μM
MEASURED PROPERTY: inhibition at 12.5 µM (%)
Report the value in % with no unit label.

Examples with their reported inhibition at 12.5 µM follow.
Cl.N[C@]1(C(=O)O)[C@@H]2[C@@H](C(=O)O)[C@@H]2[C@H](NC(=O)CO)[C@H]1OCc1ccc(Cl)c(Cl)c1 [Example 9, hydrochloride]    13.8
N[C@]1(C(=O)O)[C@@H]2[C@@H](C(=O)O)[C@@H]2[C@H](O)[C@H]1OCc1ccc(Cl)c(Cl)c1    4.8
N[C@]1(C(=O)O)[C@@H]2[C@@H](C(=O)O)[C@@H]2[C@H](Sc2nc[nH]n2)[C@H]1OCc1ccc(Cl)c(Cl)c1    -12.9

Prompt line: Param item = CC(=O)N[C@H]1[C@H]2[C@H](C(=O)O)[C@H]2[C@](N)(C(=O)O)[C@@H]1OCc1ccc(Cl)c(Cl)c1 ; retrieve measured inhibition at 12.5 µM.
Response line: 22.6

Prompt line: Now consider Cl.Cn1cnc(S[C@H]2[C@H]3[C@H](C(=O)O)[C@H]3[C@](N)(C(=O)O)[C@@H]2OCc2ccc(Cl)c(Cl)c2)n1 [Example 7, hydrochloride] and answer again.
Response line: 22.7
